This collection of values is drawn from PubChem BioAssay AID1918996.

tested on: 349418-098-R-PDC complex spheroid growth; assay: Anticancer human tumor 349418-098-R-PDC patient-derived lung adenocarcinoma cell line growth inhibition [AhR]; conditions: second compound 3.16 µM; first compound 10 µM; stronger effect = lower value
Classify: met when viability, T/C is strictly less than 20%; not met when viability, T/C is not.

Examples from the recorded data:
Nc1ccccc1NC(=O)c1ccc(CNC(=O)OCc2cccnc2)cc1 + CC(CO)NC(=O)c1cc(-c2ccc(Cl)cc2)nn(-c2cnn(C)c2)c1=O: met
NS(=O)(=O)OCC1CC(n2ccc3c(NC4CCc5ccccc54)ncnc32)CC1O (configuration not stated) + CC(CO)NC(=O)c1cc(-c2ccc(Cl)cc2)nn(-c2cnn(C)c2)c1=O: met
O=C(C=Cc1cccc(S(=O)(=O)Nc2ccccc2)c1)NO + Cc1ccccc1N=Nc1ccc(NC(=O)c2ccnn2C)c(C)c1: met
COc1ccc([C@@H](O)c2cc(-c3ncnc4cc(N5CCOCC5)ccc34)c(F)cc2Cl)nn1 + Cc1ccccc1N=Nc1ccc(NC(=O)c2ccnn2C)c(C)c1: met
COc1ccc([C@@H](O)c2cc(-c3ncnc4cc(N5CCOCC5)ccc34)c(F)cc2Cl)nn1 + CC(CO)NC(=O)c1cc(-c2ccc(Cl)cc2)nn(-c2cnn(C)c2)c1=O: met
COc1cccc2c1C(=O)c1c(O)c3c(c(O)c1C2=O)CC(O)(C(=O)CO)CC3OC1CC(N)C(O)C(C)O1 (configuration not stated) + CC(CO)NC(=O)c1cc(-c2ccc(Cl)cc2)nn(-c2cnn(C)c2)c1=O: met

Is it true that viability, T/C reported for COc1cc(Nc2ncc3c(n2)-c2ccc(Cl)cc2C(c2c(F)cccc2OC)=NC3)ccc1C(=O)O + Cc1cncc(-c2nc(NCCc3c[nH]c4ccccc34)c3ncn(C(C)C)c3n2)c1 is less than 20%?
met

Okay, and CC1COCCN1c1cc(C2(S(C)(=N)=O)CC2)nc(-c2ccnc3[nH]ccc23)n1 (configuration not stated) + Cc1cncc(-c2nc(NCCc3c[nH]c4ccccc34)c3ncn(C(C)C)c3n2)c1 ?
met

One more compound: O=C(c1cc(Cc2n[nH]c(=O)c3ccccc23)ccc1F)N1CCN(C(=O)C2CC2)CC1 + CC(CO)NC(=O)c1cc(-c2ccc(Cl)cc2)nn(-c2cnn(C)c2)c1=O
not met

----------
system: 349418-098-R-PDC complex spheroid growth; test: Anticancer human tumor 349418-098-R-PDC cell line growth inhibition [AhR]; conditions: second compound 1 µM; first compound 10 µM; stronger effect = lower value;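 further: spheroids also contain HUVEC endothelial cells and human MSC stroma; spheroids exposed to agents for seven days before luminescence viability read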
readout-name: viability, T/C (%)
Kindly provide the numeric value in % only, without the unit symbol.

COc1cccc2c1C(=O)c1c(O)c3c(c(O)c1C2=O)CC(O)(C(=O)CO)CC3OC1CC(N)C(O)C(C)O1 (stereo unspecified) + CC(CO)NC(=O)c1cc(-c2ccc(Cl)cc2)nn(-c2cnn(C)c2)c1=O: 5.75
COc1cc(C2c3cc4c(cc3C(OC3OC5COC(C)OC5C(O)C3O)C3COC(=O)C23)OCO4)cc(OC)c1O (stereo unspecified) + Cc1ccccc1N=Nc1ccc(NC(=O)c2ccnn2C)c(C)c1: 14.6
O=C(C=Cc1cccc(S(=O)(=O)Nc2ccccc2)c1)NO + CC(CO)NC(=O)c1cc(-c2ccc(Cl)cc2)nn(-c2cnn(C)c2)c1=O: 1.91

# get_value(readout='viability, T/C', item= CC1COCCN1c1cc(C2(S(C)(=N)=O)CC2)nc(-c2ccnc3[nH]ccc23)n1 (stereo unspecified) + CC(CO)NC(=O)c1cc(-c2ccc(Cl)cc2)nn(-c2cnn(C)c2)c1=O )
12.5

Moving on to COc1cc(C2c3cc4c(cc3C(OC3OC5COC(C)OC5C(O)C3O)C3COC(=O)C23)OCO4)cc(OC)c1O (stereo unspecified) + CC(CO)NC(=O)c1cc(-c2ccc(Cl)cc2)nn(-c2cnn(C)c2)c1=O
14.6

Next entry: CC(C)c1c(-c2ccccc2)nc2c(C#N)c[nH]n2c1=O + Cc1cncc(-c2nc(NCCc3c[nH]c4ccccc34)c3ncn(C(C)C)c3n2)c1
83.7
